Cited source: patent US20220324835A1

Known fold induction at 4 µM of a selection of compounds
System: T-cell
Assay: CD25 cell surface staining on T-cells co-stimulated with anti-CD3 and anti-CD28 antibody (Biological Example 2)
Format: cell-based, human
Conditions: Homo sapiens, T-cell, fold change over baseline; 4 μM Cbl-b inhibitor; primary human total T-cells; read-out: CD25 staining Anti-CD3/Anti-CD28 stimulation

-- ask Which fold induction at 4 µM value is on record for C[C@H](Sc1nncn1C)c1cccc(N2Cc3c(cccc3C(F)(F)F)C2=O)c1 [Compound 166a] ?
-- reply 1.01 to 1.3

-- ask Which fold induction at 4 µM value is on record for Cn1cnnc1[C@H]1CC[C@H]1c1cccc(N2Cc3c(cccc3C(F)(F)F)C2=O)c1 (racemic) ?
-- reply 1.01 to 1.3

-- ask Which fold induction at 4 µM value is on record for C[C@H](Sc1nncn1C)c1cccc(NC(=O)c2ccnc(C(F)(F)F)n2)c1 ?
-- reply 1.01 to 1.3

-- ask Which fold induction at 4 µM value is on record for C[C@H](Sc1nncn1C)c1cccc(NC(=O)c2cccc(C(C)(F)F)n2)c1 ?
-- reply > 1.76

###

Target: Cbl-b (Homo sapiens)
Sequence (Q13191 36-427): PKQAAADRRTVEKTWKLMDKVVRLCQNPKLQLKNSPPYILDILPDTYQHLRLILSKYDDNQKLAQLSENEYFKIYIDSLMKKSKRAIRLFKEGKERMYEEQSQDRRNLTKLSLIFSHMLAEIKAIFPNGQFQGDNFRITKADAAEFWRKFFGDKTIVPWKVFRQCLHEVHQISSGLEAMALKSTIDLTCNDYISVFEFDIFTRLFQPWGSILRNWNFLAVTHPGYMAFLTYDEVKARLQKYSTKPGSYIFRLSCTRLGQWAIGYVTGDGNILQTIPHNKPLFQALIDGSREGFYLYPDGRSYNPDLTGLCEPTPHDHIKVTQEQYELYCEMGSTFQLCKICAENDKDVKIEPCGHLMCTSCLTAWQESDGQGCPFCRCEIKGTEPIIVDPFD
Assay: Cbl-b inhibition assay (Cbl-b activity assay, FRET, Biological Example 1; 100 mM NaCl, 60 nM Src kinase)
Assay type: biochemical
Details: upper bound stated in text lists; read-out: IC50 values in the Cbl-b inhibition assay of Biological Example 1
measuredParameter: IC50

Example cases with answers are listed next.
molecule	IC50
Cn1cnnc1CC1(c2cccc(N3Cc4c(cc(CN5Cc6ccccc6C5)cc4C(F)(F)F)C3=O)c2)COC1	≤ 100 nM
CC(Sc1nncn1C)c1cccc(N2Cc3ccc(C(C)(C)O)cc3C2=O)c1 (stereo not shown)	≤ 10000 nM
CC[C@H](c1cc2c(c(C(F)(F)F)c1)CN(c1cccc(C3(Cc4nncn4C)COC3)c1)C2=O)N1CC[C@H](F)C1	≤ 100 nM
Cc1ncc(C(=O)Nc2cccc([C@H](C)Sc3nncn3C)c2)nc1C1CC1	≤ 500 nM
Cn1cnnc1CC1(c2cccc(N3Cc4c(cc(C(F)(F)CO)cc4C(F)(F)F)C3=O)c2)COC1	≤ 100 nM

-- ask Which IC50 value is on record for Cn1cnnc1CC1(c2cccc(N3Cc4c(cc(CC5CCCO5)cc4C(F)(F)F)C3=O)c2)COC1 (stereo not shown) ?
-- reply ≤ 100 nM

-- ask Which IC50 value is on record for Cn1cnnc1CC1(c2cccc(N3Cc4c(cc(CN5CCC(C)(F)C5)cc4C(F)(F)F)C3=O)c2)COC1 (stereo not shown) ?
-- reply ≤ 100 nM

###

System: T-cell
Assay: CD25 cell surface staining on T-cells co-stimulated with anti-CD3 and anti-CD28 antibody (Biological Example 2)
Type: cell-based, human
Details: Homo sapiens, T-cell, 1 μM compound; primary human total T-cells; baseline = anti-CD3/anti-CD28 stimulated cells without inhibitor; read-out: CD25 staining, Anti-CD3/Anti-CD28 stimulation, fold change over baseline
measuredParameter: fold induction at 1 µM

compound	fold induction at 1 µM
Cn1cnnc1C(F)(F)[C@](C)(F)c1cccc(N2Cc3c(cc(CN4CC[C@@H](F)C4)cc3C(F)(F)F)C2=O)c1	1.51 to 1.75
Cc1conc1CC1(c2cccc(N3Cc4c(cc(CN5CCC6(CC6)C5)cc4C(F)(F)F)C3=O)c2)COC1	1.31 to 1.5
CN1CCN(c2cc3c(c(C(F)(F)F)c2)CN(c2cccc([C@@](C)(F)C(F)(F)c4nncn4C)c2)C3=O)CC1	1.01 to 1.3
Cn1cnnc1CC1(c2cccc(N3Cc4c(cc(CN5CC(F)C5(C)C)cc4C(F)(F)F)C3=O)c2)COC1 (centres unmarked)	1.31 to 1.5
Cn1cnnc1[C@@H]1C[C@@H]1c1cccc(N2Cc3c(cc(CN4CC[C@H](F)C4)cc3C(F)(F)F)C2=O)c1	1.31 to 1.5
Cn1cnnc1CC1(c2cccc(N3Cc4c(cc(CN5CCC[C@H](F)C5)cc4C(F)(F)F)C3=O)c2)COC1	1.31 to 1.5
Cn1cnnc1[C@@H](F)[C@](C)(F)c1cccc(N2Cc3c(cc(C4CC4)cc3C(F)(F)F)C2=O)c1 (stereo in doubt)	1.01 to 1.3
C[C@H](Cc1nncn1C)c1cccc(N2Cc3c(cc(CN4CC(F)(F)C4)cc3C(F)(F)F)C2=O)c1	1.31 to 1.5

-- ask Which fold induction at 1 µM value is on record for Cn1cnnc1C(F)(F)[C@](C)(F)c1cccc(N2Cc3c(cc(-c4cncc(F)c4)cc3C(F)(F)F)C2=O)c1 ?
-- reply 1.01 to 1.3

-- ask Which fold induction at 1 µM value is on record for C[C@H](Cc1nncn1C)c1cccc(N2Cc3c(cc([C@H](C)N4CC[C@H](F)C4)cc3C(F)(F)F)C2=O)c1 ?
-- reply 1.31 to 1.5

-- ask Which fold induction at 1 µM value is on record for C[C@H](Cc1nncn1C)c1cccc(N2Cc3c(cc(CN4C[C@@H](F)[C@@H](O)C4)cc3C(F)(F)F)C2=O)c1 ?
-- reply 1.31 to 1.5

-- ask Which fold induction at 1 µM value is on record for Cc1conc1CC1(c2cccc(NC(=O)c3cc(CN4CC[C@H](O)C4)nc(C4CC4)n3)c2)COC1 ?
-- reply 1.31 to 1.5

-- ask Which fold induction at 1 µM value is on record for Cn1cnnc1CC1(c2cccc(N3Cc4c(cc(CN5CCC(C)(F)C5)cc4C(F)(F)F)C3=O)c2)COC1 (centres unmarked) ?
-- reply 1.31 to 1.5

-- ask Which fold induction at 1 µM value is on record for Cc1cc(C(=O)Nc2cccc(-c3c(-c4nncn4C)cnn3C)c2)nc(C2CC2)n1 ?
-- reply 1.01 to 1.3

###

Biological target: UniProt Q13191
Experiment: Cbl-b activity assay (Cbl-b inhibition assay), TR-FRET of Cbl-b interaction with UbcH5B-Ub
Type: biochemical
Conditions: assay buffer with 100 mM NaCl, 60 nM Src kinase; read-out: Cbl-b activity IC50
Known IC50 of a selection of compounds

Example cases with answers are listed next.
compound	IC50
COc1cccc(C(=O)Nc2cccc([C@H](C)Sc3nncn3C)c2)n1	301 to 1000 nM
C[C@H](Sc1nncn1C)c1cccc(NC(=O)c2cc(C3CC3)cc(C(F)(F)F)n2)c1	< 100 nM
C[C@H](Cc1nncn1C)c1cccc(NC(=O)c2cc(C(C)(C)O)c(Cl)cn2)c1	301 to 1000 nM
Cn1cnnc1CC1(c2cccc(NC(=O)c3nc4c(C(F)(F)F)cccc4[nH]3)c2)COC1	< 100 nM
C[C@H](Cc1nccn1C)c1cccc(NC(=O)c2cc(C(=O)N3C[C@@H](O)C[C@H]3C)ccn2)c1	3000 to 10000 nM

-- ask Which IC50 value is on record for Cn1cnnc1C(F)(F)[C@](C)(F)c1cccc(N2Cc3c(cc(CN4CC(C(F)F)C4)cc3C(F)(F)F)C2=O)c1 ?
-- reply < 100 nM

-- ask Which IC50 value is on record for C[C@@H](Cc1nncn1C)c1cccc(NC(=O)c2cc(S(C)(=O)=O)cc(C3CC3)n2)c1 [Compound 198b] ?
-- reply 3000 to 10000 nM

-- ask Which IC50 value is on record for C[C@H]1CCN(Cc2cc3c(c(C(F)(F)F)c2)CN(c2cccc(C4(Cc5nncn5C)COC4)c2)C3=O)C[C@H]1F [Example 639b] ?
-- reply < 100 nM

-- ask Which IC50 value is on record for C[C@H](Cc1nncn1C)c1cccc(N2Cc3c(cc(CN4CCC(F)(F)C4)cc3C(F)(F)F)C2=O)c1 ?
-- reply < 100 nM

-- ask Which IC50 value is on record for CN1C[C@H]2C[C@@H]1CN2c1cc2c(c(C(F)(F)F)c1)CN(c1cccc([C@@](C)(F)C(F)(F)c3nncn3C)c1)C2=O ?
-- reply < 100 nM

-- ask Which IC50 value is on record for C[C@H](Cc1nnc[nH]1)c1cccc(N2Cc3c(cccc3C(F)(F)F)C2=O)c1 ?
-- reply 301 to 1000 nM

-- ask Which IC50 value is on record for Cc1ccc(C(=O)Nc2cccc(C(C)C(F)(F)c3nncn3C)c2)nc1C1CC1 (stereo not drawn) ?
-- reply 100 to 300 nM

-- ask Which IC50 value is on record for CC(c1cc2c(c(C3CC3)n1)CN(c1cccc(C3(Cc4nncn4C)COC3)c1)C2=O)N1CCC2(CC2)C1 (stereo not drawn) ?
-- reply < 100 nM

-- ask Which IC50 value is on record for CN1CC2CCC(C1)N2c1cc2c(c(C(F)(F)F)c1)CN(c1cccc([C@@](C)(F)C(F)(F)c3nncn3C)c1)C2=O ?
-- reply < 100 nM

-- ask Which IC50 value is on record for C[C@H](Cc1nncn1C)c1cccc(N2Cc3c(cc(N[C@H]4CCNC4)cc3C(F)(F)F)C2=O)c1 ?
-- reply < 100 nM
